test system: HEK293; assay: Cytotoxic Profiling of Annotated Libraries Using Quantitative High-Throughput Screening (AID 1296008); details: Five cell lines viability, CellTiter-Glo ATP luminescence, 48-72 h; hits give low values; also: % is scaled to controls: 0 for no effect and ±100 for the full control effect; nearly all actives have a fitted effect of over 60% in size
Records with an inconclusive call do not appear.
Measured Attribute: max response (%)
Return type: number; implicit unit %.

// lookup max response for CC1(C)[C@@H](OC(=O)CCC(=O)O)CC[C@]2(C)[C@H]3C(=O)C=C4[C@@H]5C[C@@](C)(C(=O)O)CC[C@]5(C)CC[C@@]4(C)[C@]3(C)CC[C@@H]12
-0.807

What max response value was documented for this compound, Cc1onc(-c2ccccc2)c1-c1ccc(S(N)(=O)=O)cc1 ?
-13.2

Given the compound Cc1c(C)c2c(c(C)c1OC(=O)c1cccnc1)CC[C@@](C)(CCC[C@H](C)CCC[C@H](C)CCCC(C)C)O2 , what is its reported max response?
-1.31

Look up max response: CN1C(=O)CC(c2ccccc2)C1=O (stereo not given)
-5.41

Given O=C(/C=C/c1ccccc1)OCc1ccccc1 , state its recorded max response.
-4.12

More entries:
Tell me the measured max response of Cc1ccsc1/C=C/C1=NCCCN1C , please.
-1.17

Quick one: max response for Cc1ccc2c(c1)c1c3n2CCNC3CCC1 (stereo not given) ?
-1.48

If you can, please state the reported max response value of Cc1cc(-n2nc3ccc(Cl)cc3n2)c(O)c(C(C)(C)C)c1 .
4.97

Find the recorded max response belonging to CC(=O)OC[C@H]1O[C@@](COC(C)=O)(O[C@H]2O[C@H](COC(C)=O)[C@@H](OC(C)=O)[C@H](OC(C)=O)[C@H]2OC(C)=O)[C@@H](OC(C)=O)[C@@H]1OC(C)=O and report it.
-4.41

Would you kindly share the measured max response for Nc1c2c(nc3c1CCC3)CCCC2 ?
-2.02

* * *

molecular target: Cytochrome P450 2D6 (Homo sapiens) (UniProt P10635); assay: Cytochrome P450 family 2 subfamily D member 6 (CYP2D6) small molecule antagonists: luciferase biochemical (cell-free) qHTS assay (AID 1645840); conditions: P450-Glo CYP2D6 enzyme, luciferin luminescence, 1 h; series mostly up to 57.4 µM; also: nearly all actives have a fitted effect of over 55% in size; also: potency is read from the fitted curve at half-maximal effect
Sequence (P10635 whole entry, looked up): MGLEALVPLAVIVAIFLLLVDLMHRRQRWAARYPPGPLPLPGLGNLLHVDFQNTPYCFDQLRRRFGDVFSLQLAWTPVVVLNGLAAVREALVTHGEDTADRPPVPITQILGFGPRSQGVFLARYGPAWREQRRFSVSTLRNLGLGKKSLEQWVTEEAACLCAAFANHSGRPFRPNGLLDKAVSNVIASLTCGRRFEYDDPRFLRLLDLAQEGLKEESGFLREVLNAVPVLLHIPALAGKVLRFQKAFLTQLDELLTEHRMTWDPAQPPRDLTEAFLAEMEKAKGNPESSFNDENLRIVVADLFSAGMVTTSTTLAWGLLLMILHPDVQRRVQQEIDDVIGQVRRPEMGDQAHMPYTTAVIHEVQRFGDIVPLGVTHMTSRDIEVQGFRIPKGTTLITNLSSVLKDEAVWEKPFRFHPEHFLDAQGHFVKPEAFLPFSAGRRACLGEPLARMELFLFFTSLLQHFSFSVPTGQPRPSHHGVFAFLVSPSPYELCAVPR
Results filed as inconclusive are left out. Active and inactive are the calls of the source. Calls come from the whole dose curve; as a rule, active = well fitted inhibition curve with a large enough effect in the repeat runs; inconclusive = weak or mixed curves; inactive = flat fitted curve, though single readings scatter.
Measured Attribute: Potency

Given the entry Nc1ccc(C(=O)Oc2ccccc2)c(O)c1 , report its measured Potency.
inactive

State the recorded Potency for this entry: CCCCCOC(=O)Nc1nc(=O)n([C@@H]2O[C@H](C)[C@@H](O)[C@H]2O)cc1F
inactive

Give its Potency value. Item: CN(C/C=C/C#CC(C)(C)C)Cc1cccc2ccccc12
34.7 nM (active)

Sample CCN1CC(CCN2CCOCC2)C(c2ccccc2)(c2ccccc2)C1=O (stereo unspecified) — what was its Potency?
436 nM (active)

I am curious: what Potency value has been reported for O=C(O)CCCCC1CCSS1 (stereo unspecified) ?
inactive

Further cases:
What does the record list as Potency for O=C(/C=C/c1ccc(O)c(O)c1)O[C@@H]1C[C@@](OC(=O)/C=C/c2ccc(O)c(O)c2)(C(=O)O)C[C@@H](O)[C@@H]1O ?
inactive

Item C[N+](C)(C)CC[N+]1(C)Cc2c(Cl)c(Cl)c(Cl)c(Cl)c2C1 has what recorded Potency?
1950 nM (active)

# Potency lookup, item CN(C(=O)c1c(O)c2ccccc2n(C)c1=O)c1ccccc1
inactive

Tell me the measured Potency of CC(CN(C)C)C(C)(O)Cc1ccc(Cl)cc1 (stereo unspecified) , please.
12300 nM (active)

Look up Potency for this compound: O=C(O)c1ccc(OCCCOc2ccc(C(=O)O)cc2)cc1
12300 nM (active)

I have this compound here, CC1(C)S[C@@H]2[C@H](N=CN3CCCCCC3)C(=O)N2[C@H]1C(=O)O , and I need its recorded Potency.
inactive

Source: PubChem BioAssay (NCATS)
